Values were extracted from the antibiotic and cytotoxicity screens of Wong et al. (2023).

- Tested on: HepG2
- RUN_DESCRIPTION: cytotoxicity call (relative viability < 0.9)
- CONDITION_PARAMETERS: 10 µM
The campaign covered roughly 39,000 compounds. About 3,300 (8.5%) were called active. For the sample, actives were picked, then their nearest neighbours and some compounds at random.
Log the outcome using a class from True (active), False (inactive)

Challenge: Which outcome was entered for the molecule `O=C(O)CCCN=C1NC(=O)CC(=O)N1` in this test?
Response given: False

Challenge: Hi, sorry to bother you, what did the test record for `CCCN(C)C[C@@H]1OCCCC[C@H](C)Oc2ccc(NC(=O)Nc3ccc(C(F)(F)F)cc3)cc2C(=O)N([C@@H](C)CO)C[C@@H]1C` ?
Response given: False

Challenge: Call for entry `COc1ccc(S(=O)(=O)N(C)C[C@H]2OCCCC[C@H](C)Oc3ccc(NC(=O)Nc4ccccc4)cc3C(=O)N([C@H](C)CO)C[C@@H]2C)cc1` :
Response given: False

Challenge: What classification did `CCCN(C)C[C@H]1OCCCC[C@H](C)Oc2ccc(NC(=O)Nc3ccc(F)cc3)cc2C(=O)N([C@@H](C)CO)C[C@H]1C` end up with in this test?
Response given: False

Challenge: Fill in: this test's call for `O=C(O)CCN=C1NC(=O)CS1` is ___
Response given: True

Challenge: Name the outcome recorded for `CCCN(C)C[C@@H]1OCCCC[C@@H](C)Oc2ccc(NC(=O)Nc3ccc(F)cc3)cc2C(=O)N([C@H](C)CO)C[C@@H]1C` in the assay.
Response given: False

Challenge: Kindly provide the recorded test outcome for the following molecule: `COc1ccc(NC(=O)Nc2ccc3c(c2)C(=O)N([C@H](C)CO)C[C@H](C)[C@H](CN(C)Cc2ccc4c(c2)OCO4)OCCCC[C@H](C)O3)cc1`
Response given: True

Challenge: Called result for `COc1ccc(NC(=O)Nc2ccc3c(c2)C(=O)N([C@@H](C)CO)C[C@H](C)[C@H](CN(C)Cc2ccc4c(c2)OCO4)OCCCC[C@@H](C)O3)cc1`
Response given: False

Challenge: Please state the recorded outcome for this molecule: `COc1ccc(NC(=O)Nc2ccc3c(c2)C(=O)N([C@H](C)CO)C[C@@H](C)[C@@H](CN(C)Cc2ccc4c(c2)OCO4)OCCCC[C@@H](C)O3)cc1`
Response given: True

Challenge: What classification did `CCCN(C)C[C@H]1OCCCC[C@H](C)Oc2ccc(NC(=O)Nc3ccc(C(F)(F)F)cc3)cc2C(=O)N([C@@H](C)CO)C[C@H]1C` end up with in this test?
Response given: True

Challenge: Hi, do you know how `C[C@@H]1CN([C@H](C)CO)C(=O)c2cc(NC(=O)CCN3CCOCC3)ccc2O[C@@H]1CN(C)C(=O)Nc1ccc(F)cc1` came out in this test?
Response given: False

Challenge: I'd appreciate the recorded outcome for `CCCN(C)C[C@@H]1OCCCC[C@H](C)Oc2ccc(NC(=O)Nc3ccc(C(F)(F)F)cc3)cc2C(=O)N([C@H](C)CO)C[C@@H]1C` from this test.
Response given: True

Challenge: Hey, what did the test say about `CO[C@H]1CN(C)C(=O)c2cc(NC(=O)NC3CCCCC3)ccc2OC[C@@H](C)N(CCc2ccccc2)C[C@H]1C` ?
Response given: False

Challenge: Test call, this molecule: `CCCN(C)C[C@@H]1OCCCC[C@H](C)Oc2ccc(NC(=O)Nc3ccc(F)cc3)cc2C(=O)N([C@@H](C)CO)C[C@@H]1C`
Response given: False

Challenge: Outcome? `COc1ccc(NC(=O)Nc2ccc3c(c2)C(=O)N([C@H](C)CO)C[C@H](C)[C@@H](CN(C)Cc2ccc4c(c2)OCO4)OCCCC[C@H](C)O3)cc1`
Response given: False
